Tested on: RARa homodimer (NR concentration 270 nM)
Assay: PBM binding z-score (relative to random genomic background probes); higher = stronger binding; sequences stand for … in GC…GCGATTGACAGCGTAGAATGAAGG
Kindly return met if reported PBM binding z-score is no lower than 0.4; return not met if it is lower.

Known results for sequences:
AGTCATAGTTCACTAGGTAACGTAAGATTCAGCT
not met
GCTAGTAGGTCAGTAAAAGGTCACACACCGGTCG
met
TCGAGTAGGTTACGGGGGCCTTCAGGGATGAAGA
not met
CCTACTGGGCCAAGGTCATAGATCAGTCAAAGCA
not met

Say whether `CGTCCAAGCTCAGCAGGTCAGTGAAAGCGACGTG` shows PBM binding z-score of 0.4 or more.
not met

Quick check, PBM binding z-score >= 0.4? `TCATATAGGTTAAAGGTGAAAGTCGGTGTGGTAA`
met

For this sequence, is measured PBM binding z-score 0.4 or higher? `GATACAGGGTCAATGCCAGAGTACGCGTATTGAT`
met
